Reported values of IC50 for individual entries
molecular target: GST-fused human Keap1 (amino acid residues: 325-642) protein (Homo sapiens (Human))
Sequence (Q14145 325-624 limits assumed): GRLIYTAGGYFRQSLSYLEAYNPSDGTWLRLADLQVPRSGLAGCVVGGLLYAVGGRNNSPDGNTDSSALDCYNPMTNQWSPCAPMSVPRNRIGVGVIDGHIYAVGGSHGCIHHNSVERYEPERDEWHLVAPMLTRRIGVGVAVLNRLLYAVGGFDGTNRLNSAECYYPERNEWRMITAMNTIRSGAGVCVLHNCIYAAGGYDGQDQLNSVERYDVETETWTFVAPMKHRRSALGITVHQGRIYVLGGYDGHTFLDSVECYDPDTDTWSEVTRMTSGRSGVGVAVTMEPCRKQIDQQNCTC
quantity_measured: IC50

> print(dat)
                                    compound           result
 1  CC[C@@H]1CN(Cc2cc([C@H](CC(=O)O)c3ccc4c(nnn4CCN(C)C)c3C)cc3ccsc23)Cc2nc(O)ccc2O1  0.01 to 0.03 µM
 2  Cc1c([C@H](CC(=O)O)c2cc(CN3Cc4nc(O)ccc4O[C@H](C4CC4)C3)c3sccc3c2)ccc2c1nnn2C  0.01 to 0.03 µM
 3  Cc1c([C@@H](CC(=O)O)c2cc(CN3Cc4cnc(O)cc4OC4(CC4)C3)c3sccc3c2)ccc2c1nnn2C  0.01 to 0.03 µM
 4  CC[C@H]1Cc2cccnc2CN(Cc2cc(C(CC(=O)O)c3ccc4c(nnn4C)c3C)cc3ccsc23)C1 (some centres unmarked)   0.03 to 0.3 µM
 5  CC[C@@H]1CN(Cc2cc([C@@H](CC(=O)O)c3ccc4c(nnn4C)c3C)cc3ccsc23)Cc2nc(N)ccc2O1        ≤ 0.01 µM
 6  Cc1c([C@H](CC(=O)O)c2cc(CN3Cc4nc(O)ccc4O[C@@H](C4CC4)C3)c3sccc3c2)ccc2c1nnn2C   0.03 to 0.3 µM
 7  CC[C@@H]1CN(Cc2cc([C@@H](CC(=O)O)c3ccn4c(C)nnc4c3C)cc3ccsc23)Cc2nc(O)ccc2O1 (single isomer, unassigned) [Example 53]  0.01 to 0.03 µM
 8  CC[C@@H]1CN(Cc2cc(C(CC(=O)O)c3ccc4c(nnn4CCCS(C)(=O)=O)c3C)cc3ccsc23)Cc2nc(O)ccc2O1 (some centres unmarked)  0.01 to 0.03 µM
 9  Cc1c([C@H](CC(=O)O)c2cc(CN3Cc4nc(O)ccc4CC(C4CC4)C3)c3sccc3c2)ccc2c1nnn2C (single isomer, unassigned) [Example 88]   0.03 to 0.3 µM
10  CC[C@@H]1CN(Cc2cc(C(CC(=O)O)c3ccc4c(nnn4C)c3C)cc3ccsc23)Cc2nc(F)ccc2O1 (some centres unmarked)  0.01 to 0.03 µM
11  Cc1c([C@H](CC(=O)O)c2cc(CN3Cc4nc(O)ccc4OC4(CC4)C3)c3sccc3c2)ccc2c1nnn2C  0.01 to 0.03 µM
12  CC[C@@H]1CN(Cc2cc([C@@H](CC(=O)O)c3cc(C)c4c(nnn4C)c3C)cc3ccsc23)Cc2nc(O)ccc2O1   0.03 to 0.3 µM
13  CC[C@@H]1CN(Cc2cc([C@H](c3ccc4c(nnn4C)c3C)C(C)(C)C(=O)O)cc3ccsc23)Cc2nc(O)ccc2O1      0.3 to 3 µM
14  CC[C@@H]1CN(Cc2cc([C@H](CC(=O)O)c3cnc4c(nnn4C)c3C)cc3ccsc23)Cc2nc(O)ccc2O1  0.01 to 0.03 µM
15  Cc1c([C@H](CC(=O)O)c2cc(CN3Cc4nc(O)ccc4CC(C4CC4)C3)c3sccc3c2)cnc2c1nnn2C (single isomer, unassigned) [Example 91]   0.03 to 0.3 µM
16  Cc1c(C(CC(=O)O)c2cc(CN3Cc4nc(N)ccc4OC4(CC4)C3)c3sccc3c2)cnc2c1nnn2C (centres unmarked)  0.01 to 0.03 µM
17  CC[C@@H]1CN(Cc2cc([C@H](CC(=O)O)c3cc(C#N)c4c(nnn4C)c3C)cc3ccsc23)Cc2nc(O)ccc2O1  0.01 to 0.03 µM
18  Cc1c(C(CC(=O)O)c2cc(CN3Cc4nc(O)ccc4OC4(CC4)[C@@H]3C)c3sccc3c2)ccc2c1nnn2C (single isomer, unassigned) [Example 61]   0.03 to 0.3 µM
19  CC[C@@H]1CN(Cc2cc(C(CC(=O)O)c3ccc4c(nnn4C)c3C)cc3ccsc23)Cc2nc(F)c(O)cc2O1 (some centres unmarked)  0.01 to 0.03 µM
20  CC[C@@H]1CN(Cc2cc([C@@H](CC(=O)O)c3ccn4c(C)nnc4c3C)cc3ccsc23)Cc2nc(O)ccc2O1 (single isomer, unassigned) [Example 52]   0.03 to 0.3 µM
21  CC[C@@H]1CN(Cc2cc([C@@H](CC(=O)O)c3ccc4c(nnn4CC(C)(C)O)c3C)cc3ccsc23)Cc2nc(O)ccc2O1   0.03 to 0.3 µM
22  Cc1c(C(CC(=O)O)c2cc(CN3Cc4nc(O)ccc4OC4(CC4)C3)c3sccc3c2)ccn2c(C)nnc12 (centres unmarked)  0.01 to 0.03 µM
23  Cc1c([C@@H](CC(=O)O)c2cc(CN3Cc4nc(O)ccc4O[C@H](C(F)(F)F)C3)c3sccc3c2)ccc2c1nnn2C        ≤ 0.01 µM
24  CC[C@@H]1CN(Cc2cc([C@H](CC(=O)O)c3cc(C(F)(F)F)c4c(nnn4C)c3C)cc3ccsc23)Cc2nc(O)ccc2O1  0.01 to 0.03 µM
25  Cc1c([C@@H](CC(=O)O)c2cc(CN3Cc4nc(O)ccc4O[C@H](C4CC4)C3)c3sccc3c2)ccc2c1nnn2C  0.01 to 0.03 µM
26  Cc1c([C@@H](CC(=O)O)c2cc(CN3Cc4nc(O)ccc4O[C@@H](C(F)(F)F)C3)c3sccc3c2)ccc2c1nnn2C      0.3 to 3 µM
